Provenance of the data: patent US12576099B2

EXPERIMENTAL_SYSTEM: T7 RNA polymerase (Escherichia phage T7, UniProt P00573)
Sequence (P00573 whole entry): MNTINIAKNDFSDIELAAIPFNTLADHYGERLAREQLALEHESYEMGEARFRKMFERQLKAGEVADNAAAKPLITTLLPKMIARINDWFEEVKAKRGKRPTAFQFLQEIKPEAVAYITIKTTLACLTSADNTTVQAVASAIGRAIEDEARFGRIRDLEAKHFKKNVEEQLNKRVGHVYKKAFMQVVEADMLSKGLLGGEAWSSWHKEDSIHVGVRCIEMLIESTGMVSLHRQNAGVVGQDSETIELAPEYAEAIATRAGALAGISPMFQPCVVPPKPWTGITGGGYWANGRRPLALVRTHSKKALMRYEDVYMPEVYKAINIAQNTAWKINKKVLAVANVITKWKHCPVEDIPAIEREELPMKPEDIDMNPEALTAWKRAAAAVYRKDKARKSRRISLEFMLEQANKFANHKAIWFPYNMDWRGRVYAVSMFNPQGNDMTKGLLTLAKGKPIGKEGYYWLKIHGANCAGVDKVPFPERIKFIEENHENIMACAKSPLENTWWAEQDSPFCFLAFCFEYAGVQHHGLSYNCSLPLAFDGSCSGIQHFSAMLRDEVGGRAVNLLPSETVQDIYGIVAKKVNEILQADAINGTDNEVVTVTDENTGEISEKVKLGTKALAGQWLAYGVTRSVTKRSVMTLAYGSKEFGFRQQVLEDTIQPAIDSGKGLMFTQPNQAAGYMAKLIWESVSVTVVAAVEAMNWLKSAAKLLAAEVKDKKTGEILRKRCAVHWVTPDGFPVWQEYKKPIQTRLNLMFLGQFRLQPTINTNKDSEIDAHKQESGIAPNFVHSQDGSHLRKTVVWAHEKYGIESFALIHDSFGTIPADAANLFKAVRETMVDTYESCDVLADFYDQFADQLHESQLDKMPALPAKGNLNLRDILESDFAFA
TEST_SUMMARY: In vitro transcription yield of mRNA using cap analogs
Format: biochemical
CONDITION_NOTES: in vitro transcription, 1 μg DNA template, 37° C., 2 hours
Decision: Yield per unit template >= 100 µg yields satisfied, all other cases yield not satisfied.

Examples from the recorded data:
[ask] Confirm if Yield per unit template reported for the compound CO[C@@H]1[C@H](OP(=O)(O)OC[C@H]2O[C@@H](n3cnc4c(=O)[nH]c(N)nc43)[C@H](O)[C@@H]2O)[C@@H](COP(=O)(O)OP(=O)(O)OP(=O)(O)OC[C@H]2O[C@@H]([n+]3cn(C)c4c(=O)[nH]c(N)nc43)[C@H](O)[C@]2(F)CN(C)C)O[C@H]1n1cnc2c(N)ncnc21 is 100 µg or above.
[reply] not satisfied

[ask] Evaluate CO[C@@H]1[C@H](OP(=O)(O)OC[C@H]2O[C@@H](n3cnc4c(=O)[nH]c(N)nc43)[C@H](O)[C@@H]2O)[C@@H](COP(=O)(O)OP(=O)(O)OP(=O)(O)OC[C@H]2O[C@@H]([n+]3cn(C)c4c(=O)[nH]c(N)nc43)[C@H](O)[C@@H]2C(F)F)O[C@H]1n1cnc2c(N)ncnc21 : Yield per unit template at minimum 100 µg?
[reply] satisfied

Now consider the entry below.
[ask] Does COC(C)[C@H]1[C@@H](O)[C@H]([n+]2cn(C)c3c(=O)[nH]c(N)nc32)O[C@@H]1COP(=O)(O)OP(=O)(O)OP(=O)(O)OC[C@H]1O[C@@H](n2cnc3c(N)ncnc32)[C@H](OC)[C@@H]1OP(=O)(O)OC[C@H]1O[C@@H](n2cnc3c(=O)[nH]c(N)nc32)[C@H](O)[C@@H]1O (some centres unmarked) have a reported Yield per unit template of at least 100 µg?
[reply] satisfied

###

Assignment: determine reported Total radiation intensity for the given molecules.
System: BALB/C mice
TEST_SUMMARY: In vivo imaging of Fluc-mRNA LNP expression in mice
CONDITION_NOTES: at 12 hours

[ask] Return Total radiation intensity (reported value) for this molecule: CNc1ncnc2c1ncn2[C@@H]1O[C@H](COP(=O)(O)OP(=O)(O)OP(=O)(O)OC[C@H]2O[C@@H]([n+]3cn(C)c4c(=O)[nH]c(N)nc43)[C@H](O)[C@@H]2O)[C@@H](OP(=O)(O)OC[C@H]2O[C@@H](n3cnc4c(=O)[nH]c(N)nc43)[C@H](O)[C@@H]2O)[C@H]1OC [m6A, reference compound]
[reply] 2.12 ×10^8 p/s

Please turn your attention to the following entry.
[ask] Annotate the molecule CO[C@@H]1[C@H](OP(=O)(O)OC[C@H]2O[C@@H](n3cnc4c(=O)[nH]c(N)nc43)[C@H](O)[C@@H]2O)[C@@H](COP(=O)(O)OP(=O)(O)OP(=O)(O)OC[C@H]2O[C@@H]([n+]3cn(C)c4c(=O)[nH]c(N)nc43)[C@H](O)[C@@H]2O)O[C@H]1n1cnc2c(N)ncnc21 [N-7113, reference compound] with its measured Total radiation intensity.
[reply] 4.33 ×10^8 p/s

###

Test system: HEK293T cells
TEST_SUMMARY: Translation efficiency of different capped luciferase mRNAs
Type: cell-based
CONDITION_NOTES: relative to m6A
Exercise: state measured Multiple of m6A (relative fluorescence intensity) for each of the molecules provided.
One number for each entry.

See these solved cases before continuing.
[ask] Using HEK293T cells as the test system, report measured Multiple of m6A (relative fluorescence intensity) of COC[C@H]1[C@@H](O)[C@H]([n+]2cn(C)c3c(=O)[nH]c(N)nc32)O[C@@H]1COP(=O)(O)OP(=O)(O)OP(=O)(O)OC[C@H]1O[C@@H](n2cnc3c(N)ncnc32)[C@H](OC)[C@@H]1OP(=O)(O)OC[C@H]1O[C@@H](n2cnc3c(=O)[nH]c(N)nc32)[C@H](O)[C@@H]1O [HN3002, reference compound] .
[reply] 3.0

[ask] Lab note: record Multiple of m6A (relative fluorescence intensity) of CO[C@@H]1[C@H](OP(=O)(O)OC[C@H]2O[C@@H](n3cnc4c(=O)[nH]c(N)nc43)[C@H](O)[C@@H]2O)[C@@H](COP(=O)(O)OP(=O)(O)OP(=O)(O)OC[C@@]2(C(F)F)O[C@@H]([n+]3cn(C)c4c(=O)[nH]c(N)nc43)[C@H](O)[C@@H]2O)O[C@H]1n1cnc2c(N)ncnc21 tested on HEK293T cells.
[reply] 3.8

Others:
[ask] Look up HEK293T cells data: Multiple of m6A (relative fluorescence intensity) of CO[C@@H]1[C@H](OP(=O)(O)OC[C@H]2O[C@@H](n3cnc4c(=O)[nH]c(N)nc43)[C@H](O)[C@@H]2O)[C@@H](COP(=O)(O)OP(=O)(O)OP(=O)(O)OC[C@H]2O[C@@H]([n+]3cn(C)c4c(=O)[nH]c(N)nc43)[C@H](O)[C@@H]2C(C)NC(C)=O)O[C@H]1n1cnc2c(N)ncnc21 (stereo partly drawn) , then report it.
[reply] 3.8

###

Exercise: state measured Relative fluorescence intensity for each of the compounds provided.
Tested on: HEK293T cells
TEST_SUMMARY: Translation efficiency of different capped luciferase mRNAs
Type: cell-based
CONDITION_NOTES: HEK293T, 0.5 μg mRNA per well, 24 hours; proportional to translation efficiency
Answers are plain numbers.

# example entries with known answers
[ask] Let me know recorded Relative fluorescence intensity for CO[C@@H]1[C@H](OP(=O)(O)OC[C@H]2O[C@@H](n3cnc4c(=O)[nH]c(N)nc43)[C@H](O)[C@@H]2O)[C@@H](COP(=O)(O)OP(=O)(O)OP(=O)(O)OC[C@H]2O[C@@H]([n+]3cn(C)c4c(=O)[nH]c(N)nc43)[C@H](O)[C@@H]2C(F)F)O[C@H]1n1cnc2c(N)ncnc21 , thanks.
[reply] 1.95

[ask] Indicate the recorded Relative fluorescence intensity value for this compound: CO[C@@H]1[C@H](OP(=O)(O)OC[C@H]2O[C@@H](n3cnc4c(=O)[nH]c(N)nc43)[C@H](O)[C@@H]2O)[C@@H](COP(=O)(O)OP(=O)(O)OP(=O)(O)OC[C@@]2(OC)O[C@@H]([n+]3cn(C)c4c(=O)[nH]c(N)nc43)[C@H](O)[C@@H]2O)O[C@H]1n1cnc2c(N)ncnc21 [compound 5227, reference compound]
[reply] 0.82

[ask] Determine its reported Relative fluorescence intensity: CO[C@@H]1[C@H](OP(=O)(O)OC[C@H]2O[C@@H](n3cnc4c(=O)[nH]c(N)nc43)[C@H](O)[C@@H]2O)[C@@H](COP(=O)(O)OP(=O)(O)OP(=O)(O)OC[C@H]2O[C@@H]([n+]3cn(C)c4c(=O)[nH]c(N)nc43)[C@H](O)[C@@H]2C(C)NC(C)=O)O[C@H]1n1cnc2c(N)ncnc21 (stereo partly shown)
[reply] 1.43

[ask] Quick one: give measured Relative fluorescence intensity for COC[C@@H]1[C@H](OP(=O)(O)OC[C@H]2O[C@@H](n3cnc4c(=O)[nH]c(N)nc43)[C@H](O)[C@@H]2O)[C@@H](COP(=O)(O)OP(=O)(O)OP(=O)(O)OC[C@H]2O[C@@H]([n+]3cn(C)c4c(=O)[nH]c(N)nc43)[C@H](O)[C@@H]2O)O[C@H]1n1cnc2c(N)ncnc21
[reply] 1.63

[ask] For the compound CO[C@@H]1[C@H](OP(=O)(O)OC[C@H]2O[C@@H](n3cnc4c(=O)[nH]c(N)nc43)[C@H](O)[C@@H]2O)[C@@H](COP(=O)(O)OP(=O)(O)OP(=O)(O)OC[C@@]2(CF)O[C@@H]([n+]3cn(C)c4c(=O)[nH]c(N)nc43)[C@H](O)[C@@H]2O)O[C@H]1n1cnc2c(N)ncnc21 , report Relative fluorescence intensity.
[reply] 1.65

Please report Relative fluorescence intensity for every entry that follows.
1. COC(C)[C@H]1[C@@H](O)[C@H]([n+]2cn(C)c3c(=O)[nH]c(N)nc32)O[C@@H]1COP(=O)(O)OP(=O)(O)OP(=O)(O)OC[C@H]1O[C@@H](n2cnc3c(N)ncnc32)[C@H](OC)[C@@H]1OP(=O)(O)OC[C@H]1O[C@@H](n2cnc3c(=O)[nH]c(N)nc32)[C@H](O)[C@@H]1O (stereo partly shown)
2. CO[C@@H]1[C@H](OP(=O)(O)OC[C@H]2O[C@@H](n3cnc4c(=O)[nH]c(N)nc43)[C@H](O)[C@@H]2O)[C@@H](COP(=O)(O)OP(=O)(O)OP(=O)(O)OC[C@H]2O[C@@H]([n+]3cn(C)c4c(=O)[nH]c(N)nc43)[C@H](O)[C@@H]2C(C)F)O[C@H]1n1cnc2c(N)ncnc21 (stereo partly shown)

[reply]
1. 1.62
2. 1.53

###

Test system: BALB/C mice
TEST_SUMMARY: In vivo imaging of Fluc-mRNA LNP expression in mice
CONDITION_NOTES: 48 h
Give measured Multiple of total radiation intensity relative to m6A for each item. Keep answers brief.
Give bare numbers.

Solved entries (count: 3):
[ask] State, in one line, measured Multiple of total radiation intensity relative to m6A of COC[C@]1(COP(=O)(O)OP(=O)(O)OP(=O)(O)OC[C@H]2O[C@@H](n3cnc4c(N)ncnc43)[C@H](OC)[C@@H]2OP(=O)(O)OC[C@H]2O[C@@H](n3cnc4c(=O)[nH]c(N)nc43)[C@H](O)[C@@H]2O)O[C@@H]([n+]2cn(C)c3c(=O)[nH]c(N)nc32)[C@H](O)[C@@H]1O
[reply] 3.3

[ask] Item CO[C@@H]1[C@H](OP(=O)(O)OC[C@H]2O[C@@H](n3cnc4c(=O)[nH]c(N)nc43)[C@H](O)[C@@H]2O)[C@@H](COP(=O)(O)OP(=O)(O)OP(=O)(O)OC[C@H]2O[C@@H]([n+]3cn(C)c4c(=O)[nH]c(N)nc43)[C@H](O)[C@]2(C)NC(C)=O)O[C@H]1n1cnc2c(N)ncnc21 : provide Multiple of total radiation intensity relative to m6A
[reply] 1.0

[ask] For the molecule CO[C@@H]1[C@H](OP(=O)(O)OC[C@H]2O[C@@H](n3cnc4c(=O)[nH]c(N)nc43)[C@H](O)[C@@H]2O)[C@@H](COP(=O)(O)OP(=O)(O)OP(=O)(O)OC[C@@]2(C(F)F)O[C@@H]([n+]3cn(C)c4c(=O)[nH]c(N)nc43)[C@H](O)[C@@H]2O)O[C@H]1n1cnc2c(N)ncnc21 , give its reported Multiple of total radiation intensity relative to m6A.
[reply] 2.4

Lab note: each molecule below needs its Multiple of total radiation intensity relative to m6A filled in.
1. CO[C@@H]1[C@H](OP(=O)(O)OC[C@H]2O[C@@H](n3cnc4c(=O)[nH]c(N)nc43)[C@H](O)[C@@H]2O)[C@@H](COP(=O)(O)OP(=O)(O)OP(=O)(O)OC[C@H]2O[C@@H]([n+]3cn(C)c4c(=O)[nH]c(N)nc43)[C@H](O)[C@@H]2C(C)F)O[C@H]1n1cnc2c(N)ncnc21 (stereo partly drawn)
2. CO[C@@H]1[C@H](OP(=O)(O)OC[C@H]2O[C@@H](n3cnc4c(=O)[nH]c(N)nc43)[C@H](O)[C@@H]2O)[C@@H](COP(=O)(O)OP(=O)(O)OP(=O)(O)OC[C@@]2(OC)O[C@@H]([n+]3cn(C)c4c(=O)[nH]c(N)nc43)[C@H](O)[C@@H]2O)O[C@H]1n1cnc2c(N)ncnc21 [compound 5227, reference compound]
3. CO[C@@H]1[C@H](OP(=O)(O)OC[C@H]2O[C@@H](n3cnc4c(=O)[nH]c(N)nc43)[C@H](O)[C@@H]2O)[C@@H](COP(=O)(O)OP(=O)(O)OP(=O)(O)OC[C@H]2O[C@@H]([n+]3cn(C)c4c(=O)[nH]c(N)nc43)[C@H](O)[C@@H]2O)O[C@H]1n1cnc2c(N)ncnc21 [N-7113, reference compound]

[reply]
1.0
0.9
0.9
